Target: T1, recombinant human IL-23 (hrIL-23), produced at Centocor (human, UniProt P29460 23-328)
T1 construct: p19-p40 heterodimer; also called rhIL-23; huIL-23
T1 sequence 1: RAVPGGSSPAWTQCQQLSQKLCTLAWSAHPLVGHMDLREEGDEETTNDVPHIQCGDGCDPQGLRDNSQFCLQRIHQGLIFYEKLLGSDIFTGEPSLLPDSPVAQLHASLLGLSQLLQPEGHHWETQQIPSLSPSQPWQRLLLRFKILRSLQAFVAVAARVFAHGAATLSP
T1 sequence 2: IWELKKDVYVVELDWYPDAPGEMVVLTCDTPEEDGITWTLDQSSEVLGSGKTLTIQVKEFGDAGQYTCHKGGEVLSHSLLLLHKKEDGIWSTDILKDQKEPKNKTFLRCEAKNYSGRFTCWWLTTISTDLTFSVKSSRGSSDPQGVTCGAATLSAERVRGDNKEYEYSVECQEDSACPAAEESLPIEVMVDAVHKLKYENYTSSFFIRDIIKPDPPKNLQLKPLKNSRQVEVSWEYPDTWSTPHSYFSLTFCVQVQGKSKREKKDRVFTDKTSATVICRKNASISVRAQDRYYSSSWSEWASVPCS
Assay: SET
# t = Kd below 0.02 nM (exclusive); f = Kd at/above 0.02 nM

Req: Kd strictly < 0.02 nM for this binder? MOR05046 Fab (Fab, V domains shown, Fab) VH: QVQLVQSGAEVKKPGESLKISCKGSGYSFSNYWIGWVRQMPGKGLEWMGIIDPVSSWTKYSPSFQGQVTISADKSISTAYLQWSSLKASDTAMYYCARWYYKPFDVWGQGTLVTVSS VL: DIVLTQPPSVSGAPGQRVTISCTGSSSNIGSGYDVHWYQQLPGTAPKLLIYGNSKRPSGVPDRFSGSKSGTSASLAITGLQSEDEADYYCSSWTPSSVVFGGGTKLTVL
Resp: f

Req: Consider the binder MOR05045 Fab (Fab, V domains shown, Fab) VH: QVQLVQSGAEVKKPGESLKISCKGSGYSFSNYWIGWVRQMPGKGLEWMGIISPTGSATWYSPSFQGQVTISADKSISTAYLQWSSLKASDTAMYYCARWYYKPFDVWGQGTLVTVSS VL: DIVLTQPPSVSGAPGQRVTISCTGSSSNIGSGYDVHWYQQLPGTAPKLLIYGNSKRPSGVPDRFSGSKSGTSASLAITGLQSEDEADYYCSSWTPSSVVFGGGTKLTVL . Is its Kd strictly less than 0.02 nM?
Resp: t

Req: Strictly below 0.02 nM: is that where Kd of MOR05043 Fab (Fab, V domains shown, Fab) VH: QVQLVQSGAEVKKPGESLKISCKGSGYSFSNYWIGWVRQMPGKGLEWMGFISPDGSHTWYSPSFQGQVTISADKSISTAYLQWSSLKASDTAMYYCARWYYKPFDVWGQGTLVTVSS VL: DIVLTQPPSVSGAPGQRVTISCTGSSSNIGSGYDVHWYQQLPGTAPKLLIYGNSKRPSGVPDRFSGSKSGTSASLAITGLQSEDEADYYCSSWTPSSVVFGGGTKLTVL sits?
Resp: t

Req: Is it true that Kd reported for MOR05041 Fab (Fab, V domains shown, Fab) VH: QVQLVQSGAEVKKPGESLKISCKGSGYSFSNYWIGWVRQMPGKGLEWMGIISPTGSVTWYSPSFQGQVTISADKSISTAYLQWSSLKASDTAMYYCARWYYKPFDVWGQGTLVTVSS VL: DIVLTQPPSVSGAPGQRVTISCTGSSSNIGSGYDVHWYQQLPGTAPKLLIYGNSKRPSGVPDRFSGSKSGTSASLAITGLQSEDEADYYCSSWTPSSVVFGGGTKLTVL is less than 0.02 nM?
Resp: f

Req: In plain terms, does MOR05059 Fab (Fab, V domains shown, Fab) VH: QVQLVQSGAEVKKPGESLKISCKGSGYSFSNYWIGWVRQMPGKGLEWMGIIDPSNSYTNYSPSFQGQVTISADKSISTAYLQWSSLKASDTAMYYCARWYYKPFDVWGQGTLVTVSS VL: DIVLTQPPSVSGAPGQRVTISCTGSSSNIGSGYDVHWYQQLPGTAPKLLIYGNSKRPSGVPDRFSGSKSGTSASLAITGLQSEDEADYYCASWTDGLSLVVFGGGTKLTVL come in under 0.02 nM for Kd?
Resp: f

Reference for the values: patent US20180291096A1
